B1: ZNF232 (parent)
chain: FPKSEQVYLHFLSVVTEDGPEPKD

Variants of: B1
assay_info: protein stability index of a GFP-peptide fusion (GPS, HEK-293T) (PSI 1-6); higher = more stable;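 also: lentivirally expressed fusions sorted by FACS into six bins by GFP to DsRed ratio, PSI derived from sequencing read proportions per bin multiplied by bin number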
test_conditions: c terminus: a fixed tail appended
Use true (1) when the recorded protein stability index is no lower than 2; use false (0) when it is lower.

Solved entries:
FPKSEQVYLHFLSNVTEDGPEPKD [V14N]    true (1)
FPKSEQVYLHFLSVVTEDGPEPKW [D24W]    false (0)
FPKSEQVYLHFLSVVTEDGMEPKD [P20M]    true (1)
FPKSEQVYLHFLSVVTEDGPCPKD [E21C]    false (0)
FPKSEQVPLHFLSVVTEDGPEPKD [Y8P]    true (1)

Query string: Identify whether the reported protein stability index of the following variant is 2 or greater: FPKSEQVYLHFLSVCTEDGPEPKD [V15C]
Result string: false (0)
